- Tested on: HCC-2998 colon
- protocol: NCI tumour cell line growth inhibition, 48 h
Field: GI50. Provide a value for each of the compounds that follow.

Please go through the list and note GI50 for each compound.
1. Cn1nccc1Nc1nccc(-c2cc3c(s2)C(C)(C)N(CCN2CCOCC2)C3=O)n1
2. C/C=C(\C)C(=O)N[C@H]1CC[C@]2(C)C3CC[C@@]4(C)C(CC[C@@H]4C(C)N(C)C)C3CCC2[C@H]1OC(C)=O (some centres undefined)
3. C[C@@H]1CN(C(=O)c2ccc(NC(=O)c3cc(O[C@H](C)c4c(Cl)ccc(F)c4Cl)c(N)nn3)cc2)C[C@H](C)N1
4. O=c1c2cccc(Cl)c2sc2c(NCCCNCCO)nc3ccccc3c12
5. CC1=CC(=NC(=O)CBr)C=C/C1=N\S(=O)(=O)c1ccccc1
6. CC(C)=CCC[C@H](C)[C@@H]1CC[C@]2(C)C3CC[C@]4(OC4(C)C)C(CCCO)[C@]3(C)CC[C@@]12C (some centres undefined)

**A:**
1: 0.602 µM; 2: 1.56 µM; 3: 14.5 µM; 4: 1.62 µM; 5: 16.5 µM; 6: 7.75 µM

Please go through the list and note GI50 for each compound.
1. O=C(Nc1ccccc1O)c1cccc(NC2=C(Cl)C(=O)N(Cc3ccccc3)C2=O)c1
2. O=[N+]([O-])c1ccc(Br)c([N+](=O)[O-])c1
3. CCCN(CCC)C(=O)C1=Cc2ccc(-c3ccc(C(=O)N4CCCC4)cc3)cc2N=C(N)C1

**A:**
1: 3.33 µM; 2: 4.73 µM; 3: 14.4 µM
